All values here come from patent US9403792B2.

# SUBJECT_OF_TEST: wild type PKR (Homo sapiens)
# Sequence (P30613 whole entry): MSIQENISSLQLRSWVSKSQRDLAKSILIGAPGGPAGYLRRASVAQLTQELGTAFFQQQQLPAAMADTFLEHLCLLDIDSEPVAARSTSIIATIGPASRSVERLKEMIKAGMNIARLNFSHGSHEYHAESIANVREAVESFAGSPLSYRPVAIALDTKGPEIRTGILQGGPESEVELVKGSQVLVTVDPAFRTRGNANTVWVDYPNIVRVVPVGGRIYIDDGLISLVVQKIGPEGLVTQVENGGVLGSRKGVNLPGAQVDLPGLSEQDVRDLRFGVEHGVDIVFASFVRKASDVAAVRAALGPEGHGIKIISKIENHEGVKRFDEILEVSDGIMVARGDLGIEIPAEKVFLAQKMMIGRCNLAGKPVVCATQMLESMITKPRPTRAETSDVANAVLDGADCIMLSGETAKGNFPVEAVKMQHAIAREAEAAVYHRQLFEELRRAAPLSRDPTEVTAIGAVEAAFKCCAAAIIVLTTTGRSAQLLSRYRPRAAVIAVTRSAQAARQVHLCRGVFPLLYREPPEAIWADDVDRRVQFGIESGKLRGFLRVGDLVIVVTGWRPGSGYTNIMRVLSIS
# ASSAY_COMMENT: PKR Mutant Assay (AC50), wild type PKR
# Format: biochemical
# TEST_PARAMETERS: read-out: PKR WT AC50
OBSERVED_PROPERTY: AC50

Past entries and their recorded results:
- COMPOUND: "Cn1c2cc([S+](C)[O-])sc2c2cnn(Cc3cccc(O)c3)c(=O)c21 (stereo not shown)"
  AC50: "< 100 nM"
- COMPOUND: "CSc1cc2c(s1)c1cnn(Cc3cccc(O)c3)c(=O)c1n2C"
  AC50: "< 100 nM"
- COMPOUND: "Cn1c2cc([S+](C)[O-])sc2c2cnn(Cc3ccccc3F)c(=O)c21 (stereo not shown)"
  AC50: "101 to 500 nM"

We next turn to a different compound, shown below.
Give the reported AC50 for this compound. COc1cccc(Cn2ncc3c4sc([S+](C)[O-])cc4n(C)c3c2=O)c1 (stereo not shown)
< 100 nM

====

Listed here: items and their measured AC50.
# SUBJECT_OF_TEST: PKR R479H (Homo sapiens, UniProt P30613, R479H)
# Sequence (P30613 whole entry R479H): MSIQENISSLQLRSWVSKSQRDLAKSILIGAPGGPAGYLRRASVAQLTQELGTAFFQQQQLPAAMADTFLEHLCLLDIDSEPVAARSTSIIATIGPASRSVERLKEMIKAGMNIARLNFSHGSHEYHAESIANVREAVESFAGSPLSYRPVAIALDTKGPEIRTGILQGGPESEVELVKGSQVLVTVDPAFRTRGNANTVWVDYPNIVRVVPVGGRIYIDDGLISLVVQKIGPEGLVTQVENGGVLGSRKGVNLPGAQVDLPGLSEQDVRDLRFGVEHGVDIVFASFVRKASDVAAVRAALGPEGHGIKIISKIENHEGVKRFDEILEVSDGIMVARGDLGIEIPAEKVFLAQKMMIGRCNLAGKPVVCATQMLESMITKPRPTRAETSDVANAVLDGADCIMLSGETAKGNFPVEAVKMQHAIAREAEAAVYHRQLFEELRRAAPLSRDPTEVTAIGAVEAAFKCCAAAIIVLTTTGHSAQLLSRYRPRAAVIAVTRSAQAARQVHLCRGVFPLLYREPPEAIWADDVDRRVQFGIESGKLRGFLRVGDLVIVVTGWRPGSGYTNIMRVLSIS
# ASSAY_COMMENT: PKR Mutant Assay (AC50), PKR R479H
# Type: biochemical
# Method: • PKR or PKR mutant enzyme solution was diluted in assay buffer. 2 μL of test compound was added into wells first, and then 180 μL reaction mix was added. • Reactions mixture with test compound was assembled except for ADP, and plates were stored for 60 minutes at room temperature. • 20 uL ADP was added to start reaction at room temperature and reaction progress was measured as changes in absorbance at 340 nm wavelength at room temperature. […]

Past entries and their recorded results:
- COMPOUND: "Cn1c2cc([S+](C)[O-])sc2c2cnn(Cc3ccccc3F)c(=O)c21 (stereo not shown)"
  AC50: "101 to 500 nM"
- COMPOUND: "COc1cccc(Cn2ncc3c4sc([S+](C)[O-])cc4n(C)c3c2=O)c1 (stereo not shown)"
  AC50: "< 100 nM"
- COMPOUND: "Cn1c2cc([S+](C)[O-])sc2c2cnn(Cc3cccc(O)c3)c(=O)c21 (stereo not shown)"
  AC50: "< 100 nM"

We next turn to a different compound, shown below.
Fetch value of AC50 on PKR R479H (Homo sapiens, UniProt P30613, R479H) for CSc1cc2c(s1)c1cnn(Cc3cccc(O)c3)c(=O)c1n2C .
< 100 nM

====

# SUBJECT_OF_TEST: PKR R510Q (Homo sapiens, UniProt P30613, R510Q)
# Sequence (P30613 whole entry R510Q): as the sequence (P30613 whole entry R479H) above, with H479R, R510Q counted along it
# ASSAY_COMMENT: PKR Mutant Assay (AC50), PKR R510Q
# Format: biochemical
OBSERVED_PROPERTY: AC50

Past entries and their recorded results:
- COMPOUND: "CSc1cc2c(s1)c1cnn(Cc3cccc(O)c3)c(=O)c1n2C"
  RESULT: "< 100 nM"
- COMPOUND: "Cn1c2cc([S+](C)[O-])sc2c2cnn(Cc3ccccc3F)c(=O)c21 (stereo not shown)"
  RESULT: "101 to 500 nM"
- COMPOUND: "COc1cccc(Cn2ncc3c4sc([S+](C)[O-])cc4n(C)c3c2=O)c1 (stereo not shown)"
  RESULT: "< 100 nM"

Give the reported AC50 for this compound. Cn1c2cc([S+](C)[O-])sc2c2cnn(Cc3cccc(O)c3)c(=O)c21 (stereo not shown)
< 100 nM
